system: HT-29; experiment: MTT assay, 72 h, HT-29; format: cell-based; settings: Homo sapiens; HT-29, MTT, 72 h treatment, mean ± SD
quantity kind: IC50 (µM)
Dear colleague, please return just the value in µM, with no unit written.

Value of IC50 reported for the molecule Cc1ccc(-c2cc(C(F)(F)F)nn2-c2ccc(S(N)(=O)=O)cc2)cc1 [Celecoxib] is 68

----------
system: Caco-2; assay: MTT assay, 72 h, Caco-2; type: cell-based; settings: Homo sapiens; Caco-2, MTT, 72 h treatment, mean ± SD
quantity kind: IC50 (µM)
Dear colleague, please return just the value in µM, with no unit written.

Value of IC50 reported for the molecule Cc1ccc(-c2cc(C(F)(F)F)nn2-c2ccc(S(N)(=O)=O)cc2)cc1 is 79.2
